The origin of these recorded values is ChEMBL document CHEMBL1133451.

The following molecules are shown together with reported pIC50 values.
subject of test: UniProt:O76074
Formally, pIC50 is defined as -log10 of the concentration c, with c in mol/L.

Before answering, review these 2 worked examples.
                            molecule_smiles  subject_of_test  recorded_metric  observed_result
0  CCCOc1ccc(S(=O)(=O)N2CCN(CC)CC2)cc1-c1nc(O)c2cc3c(cc2n1)ncn3Cc1cccc(OC)c1   UniProt:O76074            pIC50             8.96
1  CCCOc1ccc(S(N)(=O)=O)cc1-c1nc2cc3ncn(Cc4ccc(F)cc4)c3cc2c(=O)[nH]1   UniProt:O76074            pIC50             8.49

From here, focus on the item given below.
For UniProt:O76074, give the measured pIC50 of the entry CCCOc1ccc(S(=O)(=O)N2CCN(CC)CC2)cc1-c1nc2cc3ncn(Cc4cccc(F)c4)c3cc2c(=O)[nH]1 8.85

----------
The following molecules are shown together with reported IC50 ratio values.
measurement description: In vitro selectivity ratio of Bovine Heart PDE1 to human platelet PDE5 was determined

Before answering, review these 2 worked examples.
>>> df
                            molecule_smiles  observed_result
0  CCCOc1ccc(S(=O)(=O)N2CCN(CC)CC2)cc1-c1nc(O)c2cc3c(cc2n1)ncn3Cc1cccc(F)c1          > 10000
1  CCCOc1ccc(S(=O)(=O)N2CC[C@@H](N(C)C)C2)cc1-c1nc(O)c2cc3c(cc2n1)ncn3Cc1ccc(Cl)cc1          > 10000

Name the recorded IC50 ratio of the molecule listed here: CCCOc1ccc(S(=O)(=O)N2CC[C@@H](N(C)C)C2)cc1-c1nc(O)c2cc3c(cc2n1)ncn3Cc1ccccc1 > 10000

Name the recorded IC50 ratio of the molecule listed here: CCCOc1ccc(S(=O)(=O)N2CCN(CC)CC2)cc1-c1nc(O)c2cc3c(cc2n1)ncn3Cc1ccccc1Cl > 10000

Name the recorded IC50 ratio of the molecule listed here: CCCOc1ccc(S(N)(=O)=O)cc1-c1nc(O)c2cc3c(cc2n1)ncn3Cc1ccc(F)cc1 > 10000

----------
measurement description: In vitro selectivity ratio of PDE6 of Bovine retina to human platelet PDE5 was determined
recorded metric: IC50 ratio
Form field (numeric): enter value without unit.

>>> print(df.to_string())
                            molecule_smiles  observed_result
0  CCCOc1ccc(S(=O)(=O)N2CCN(CC)CC2)cc1-c1nc(O)c2cc3c(cc2n1)ncn3Cc1cccc(OC)c1               50
1  CCCOc1ccc(S(=O)(=O)N2CCN(CC)CC2)cc1-c1nc(O)c2cc3c(cc2n1)ncn3Cc1ccccc1               50
2  CCCOc1ccc(S(=O)(=O)N2CCN(CC)CC2)cc1-c1nc(O)c2cc3c(cc2n1)ncn3Cc1cccc(F)c1               80

Name the recorded IC50 ratio of the compound listed here: CCCOc1ccc(S(N)(=O)=O)cc1-c1nc(O)c2cc3c(cc2n1)ncn3Cc1ccc(F)cc1 20

Name the recorded IC50 ratio of the compound listed here: CCCOc1ccc(S(=O)(=O)N2CCN(CC)CC2)cc1-c1nc(O)c2cc3c(cc2n1)ncn3Cc1ccc(F)cc1 80

Name the recorded IC50 ratio of the compound listed here: CCCOc1ccc(S(=O)(=O)N2CC[C@@H](N(C)C)C2)cc1-c1nc(O)c2cc3c(cc2n1)ncn3Cc1ccc(Cl)cc1 50

Name the recorded IC50 ratio of the compound listed here: CCCOc1ccc(S(=O)(=O)N2CCN(C)CC2)cc1-c1nc(O)c2cc3c(cc2n1)ncn3Cc1ccccc1 20

Name the recorded IC50 ratio of the compound listed here: CCCOc1ccc(S(=O)(=O)N2CC[C@@H](N(C)C)C2)cc1-c1nc(O)c2cc3c(cc2n1)ncn3Cc1ccccc1 30

----------
The following compounds are shown together with reported Control relaxation values.
Test system: cGMP-specific 3',5'-cyclic phosphodiesterase (Oryctolagus cuniculus)
measurement description: Rabbit Corpus Cavernosum functional assay at 30 nM to determine the efficacy of PDE5 inhibition activity.
# number then unit; no other words

Before answering, review these 8 worked examples.
                            molecule_smiles     recorded_metric  observed_result
0  CCCOc1ccc(S(=O)(=O)N2CCN(CC)CC2)cc1-c1nc(O)c2cc3c(cc2n1)ncn3Cc1cccc(OC)c1  Control relaxation             130%
1  CCCOc1ccc(S(=O)(=O)N2CC[C@@H](N(C)C)C2)cc1-c1nc2cc3ncn(Cc4ccc(F)cc4)c3cc2c(=O)[nH]1  Control relaxation             120%
2  CCCOc1ccc(S(=O)(=O)N2CCN(C)CC2)cc1-c1nc(O)c2cc3c(cc2n1)ncn3Cc1ccccc1  Control relaxation             120%
3  CCCOc1ccc(S(=O)(=O)N2CCN(CC)CC2)cc1-c1nc(O)c2cc3c(cc2n1)ncn3Cc1ccccc1  Control relaxation              90%
4  CCCOc1ccc(S(=O)(=O)N2CCN(CC)CC2)cc1-c1nc(O)c2cc3c(cc2n1)ncn3Cc1cccc(F)c1  Control relaxation             100%
5  CCCOc1ccc(C(N)=O)cc1-c1nc(O)c2cc3c(cc2n1)ncn3Cc1ccc(F)cc1  Control relaxation             140%
6  CCCOc1ccc(S(=O)(=O)N2CCN(CC)CC2)cc1-c1nc(O)c2cc3c(cc2n1)ncn3Cc1ccccc1Cl  Control relaxation              90%
7  CCCOc1ccc(S(=O)(=O)N2CCN(CC)CC2)cc1-c1nc(O)c2cc3c(cc2n1)ncn3Cc1ccc(F)cc1  Control relaxation             100%

Name the recorded Control relaxation of the compound listed here: CCCOc1ccc(S(N)(=O)=O)cc1-c1nc(O)c2cc3c(cc2n1)ncn3Cc1ccc(F)cc1 100%

Name the recorded Control relaxation of the compound listed here: CCCOc1ccc(S(=O)(=O)N2CC[C@@H](N(C)C)C2)cc1-c1nc(O)c2cc3c(cc2n1)ncn3Cc1ccccc1 110%

----------
measurement description: In vitro selectivity ratio of PDE2 of Rat kidney to human platelet PDE5 was determined
The following compounds are shown together with reported IC50 ratio values.

Before answering, review these 5 worked examples.
In [3]: df
Out[3]:
                            molecule_smiles  recorded_metric  observed_result
0  CCCOc1ccc(C(N)=O)cc1-c1nc(O)c2cc3c(cc2n1)ncn3Cc1ccc(F)cc1       IC50 ratio         > 100000
1  CCCOc1ccc(S(=O)(=O)N2CCN(CC)CC2)cc1-c1nc(O)c2cc3c(cc2n1)ncn3Cc1cccc(F)c1       IC50 ratio          > 10000
2  CCCOc1ccc(S(=O)(=O)N2CC[C@@H](N(C)C)C2)cc1-c1nc(O)c2cc3c(cc2n1)ncn3Cc1ccc(Cl)cc1       IC50 ratio          > 10000
3  CCCOc1ccc(S(=O)(=O)N2CCN(CC)CC2)cc1-c1nc(O)c2cc3c(cc2n1)ncn3Cc1ccccc1       IC50 ratio          > 10000
4  CCCOc1ccc(S(=O)(=O)N2CC[C@@H](N(C)C)C2)cc1-c1nc(O)c2cc3c(cc2n1)ncn3Cc1ccccc1       IC50 ratio          > 10000

Name the recorded IC50 ratio of the compound listed here: CCCOc1ccc(S(=O)(=O)N2CC[C@@H](N(C)C)C2)cc1-c1nc2cc3ncn(Cc4ccc(F)cc4)c3cc2c(=O)[nH]1 > 10000

Name the recorded IC50 ratio of the compound listed here: CCCOc1ccc(S(=O)(=O)N2CCN(CC)CC2)cc1-c1nc(O)c2cc3c(cc2n1)ncn3Cc1ccccc1Cl > 10000

Name the recorded IC50 ratio of the compound listed here: CCCOc1ccc(S(=O)(=O)N2CCN(CC)CC2)cc1-c1nc(O)c2cc3c(cc2n1)ncn3Cc1ccc(F)cc1 > 10000

Name the recorded IC50 ratio of the compound listed here: CCCOc1ccc(S(=O)(=O)N2CCN(C)CC2)cc1-c1nc(O)c2cc3c(cc2n1)ncn3Cc1ccccc1 > 10000

Name the recorded IC50 ratio of the compound listed here: CCCOc1ccc(S(N)(=O)=O)cc1-c1nc(O)c2cc3c(cc2n1)ncn3Cc1ccc(F)cc1 > 10000

Name the recorded IC50 ratio of the compound listed here: CCCOc1ccc(S(=O)(=O)N2CCN(CC)CC2)cc1-c1nc(O)c2cc3c(cc2n1)ncn3Cc1cccc(OC)c1 7000

----------
The following compounds are shown together with reported pIC50 values.
subject of test: cGMP-specific 3',5'-cyclic phosphodiesterase (Homo sapiens)
Formally, pIC50 is defined as -log10 of the concentration c, with c in mol/L.

Before answering, review these 3 worked examples.
In [3]: df
Out[3]:
                            molecule_smiles  observed_result
0  CCCOc1ccc(S(=O)(=O)N2CC[C@@H](N(C)C)C2)cc1-c1nc(O)c2cc3c(cc2n1)ncn3Cc1ccccc1             8.96
1  CCCOc1ccc(S(=O)(=O)N2CC[C@@H](N(C)C)C2)cc1-c1nc(O)c2cc3c(cc2n1)ncn3Cc1ccc(Cl)cc1             9.28
2  CCCOc1ccc(S(=O)(=O)N2CCN(C)CC2)cc1-c1nc2cc3ncn(Cc4ccc(F)cc4)c3cc2c(=O)[nH]1             8.48

From here, focus on the item given below.
For cGMP-specific 3',5'-cyclic phosphodiesterase (Homo sapiens), give the measured pIC50 of the entry CCCOc1ccc(C(=O)N2CCN(CC)CC2)cc1-c1nc2cc3ncn(Cc4ccc(F)cc4)c3cc2c(=O)[nH]1 7.46
